Biological target: Cathepsin S (Homo sapiens, UniProt P25774)
Sequence (P25774 whole entry): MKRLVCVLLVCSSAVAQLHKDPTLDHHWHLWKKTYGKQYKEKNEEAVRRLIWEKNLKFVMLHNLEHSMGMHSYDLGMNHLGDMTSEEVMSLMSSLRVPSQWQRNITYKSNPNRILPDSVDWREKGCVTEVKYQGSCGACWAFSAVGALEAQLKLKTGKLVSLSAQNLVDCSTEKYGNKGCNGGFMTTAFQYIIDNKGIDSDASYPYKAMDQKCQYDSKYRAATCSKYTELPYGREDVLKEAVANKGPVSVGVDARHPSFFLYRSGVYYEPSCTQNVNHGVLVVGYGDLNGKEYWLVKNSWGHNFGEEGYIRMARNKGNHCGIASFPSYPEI
Assay metric: pIC50
One number for each entry, as −log10 of the molar value.

Specify pIC50 for `CC(C)C[C@H](NC(=O)[C@H]1O[C@@H]1C(=O)O)C(=O)NCCCCN=C(N)N` and stop.
8.45

----------
Molecular target: Dipeptidyl peptidase 1 (Homo sapiens, UniProt P53634)
Sequence (P53634 25-134 limits assumed): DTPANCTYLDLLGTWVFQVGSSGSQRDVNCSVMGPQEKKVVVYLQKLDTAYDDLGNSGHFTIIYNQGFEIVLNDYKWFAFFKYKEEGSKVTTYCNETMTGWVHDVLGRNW
Sequence (P53634 231-394 limits assumed): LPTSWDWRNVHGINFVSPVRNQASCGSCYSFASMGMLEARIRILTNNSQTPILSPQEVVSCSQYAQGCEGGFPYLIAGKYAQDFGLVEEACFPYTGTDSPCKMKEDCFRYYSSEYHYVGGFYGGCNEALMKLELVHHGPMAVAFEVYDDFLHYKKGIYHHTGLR
Sequence (P53634 395-463 limits assumed): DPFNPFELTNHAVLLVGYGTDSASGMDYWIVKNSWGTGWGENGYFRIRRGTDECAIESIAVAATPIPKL
Task for the reader: assign each of the following molecules its reported IC50.
One number for each entry, in nM.

# Chemical structure, Value units, Measured number
rows = [
    ("O=C(OC[C@H]1O[C@H](OC(=O)c2cc(O)c(O)c(O)c2)[C@H](OC(=O)c2cc(O)c(O)c(O)c2)[C@@H](OC(=O)c2cc(O)c(O)c(O)c2)[C@@H]1OC(=O)c1cc(O)c(O)c(O)c1)c1cc(O)c(O)c(O)c1", "nM", 1990),
]

Provide IC50 values for the following items, in order.
1. O=C(OC[C@H]1O[C@@H](OC(=O)c2cc(O)c(O)c(O)c2)[C@H](OC(=O)c2cc(O)c(O)c(O)c2)[C@@H](OC(=O)c2cc(O)c(O)c(O)c2)[C@H]1OC(=O)c1cc(O)c(O)c(O)c1)c1cc(O)c(O)c(O)c1
2. O=C(OC[C@H]1O[C@@H](OC(=O)c2cc(O)c(O)c(O)c2)[C@H](OC(=O)c2cc(O)c(O)c(O)c2)[C@@H](OC(=O)c2cc(O)c(O)c(O)c2)[C@@H]1OC(=O)c1cc(O)c(O)c(O)c1)c1cc(O)c(O)c(O)c1
3. O=C(OC[C@H]1O[C@H](OC(=O)c2cc(O)c(O)c(O)c2)[C@H](OC(=O)c2cc(O)c(O)c(O)c2)[C@@H](OC(=O)c2cc(O)c(O)c(O)c2)[C@H]1OC(=O)c1cc(O)c(O)c(O)c1)c1cc(O)c(O)c(O)c1
4. CC(C)C[C@H](NC(=O)[C@H]1O[C@@H]1C(=O)O)C(=O)NCCCCN=C(N)N

1: 735; 2: 695; 3: 2520; 4: 4450
